Listing of recorded MIC by entry.
Tested on: Pseudomonas aeruginosa
measurement notes: Antibacterial activity against Pseudomonas aeruginosa PAO1 after 18 to 24 hrs by broth microdilution method
Type: functional
parameter measured: MIC (µg/mL)

{"record smiles": "COc1ccc2c(c1)N(CCN1CCC(NCc3ccc4c(n3)NC(=O)CO4)CC1)C(=O)CC2", "parameter measured": "MIC", "inequality symbol": ">", "measured number": 8}
{"record smiles": "O=C1COc2ccc(CNC3CCN(CCN4C(=O)COc5ccc(F)cc54)CC3)nc2N1", "parameter measured": "MIC", "inequality symbol": "=", "measured number": 3}
{"record smiles": "COc1ncc2ncc(=O)n(CCN3CCC(NCc4cc5c(cn4)OCCO5)CC3)c2n1", "parameter measured": "MIC", "inequality symbol": ">", "measured number": 8}
{"record smiles": "COc1ccc2c(c1)N(CCN1CCC(NCc3ccc4c(n3)NC(=O)CO4)CC1)C(=O)CO2", "parameter measured": "MIC", "inequality symbol": "=", "measured number": 4}
{"record smiles": "COc1ccc2ncc(=O)n(CCN3CCC(NCc4cc5c(cn4)OCCO5)CC3)c2c1", "parameter measured": "MIC", "inequality symbol": "=", "measured number": 4}

###

target entity: Voltage-gated inwardly rectifying potassium channel KCNH2 (Homo sapiens)
Sequence (Q12809 whole entry): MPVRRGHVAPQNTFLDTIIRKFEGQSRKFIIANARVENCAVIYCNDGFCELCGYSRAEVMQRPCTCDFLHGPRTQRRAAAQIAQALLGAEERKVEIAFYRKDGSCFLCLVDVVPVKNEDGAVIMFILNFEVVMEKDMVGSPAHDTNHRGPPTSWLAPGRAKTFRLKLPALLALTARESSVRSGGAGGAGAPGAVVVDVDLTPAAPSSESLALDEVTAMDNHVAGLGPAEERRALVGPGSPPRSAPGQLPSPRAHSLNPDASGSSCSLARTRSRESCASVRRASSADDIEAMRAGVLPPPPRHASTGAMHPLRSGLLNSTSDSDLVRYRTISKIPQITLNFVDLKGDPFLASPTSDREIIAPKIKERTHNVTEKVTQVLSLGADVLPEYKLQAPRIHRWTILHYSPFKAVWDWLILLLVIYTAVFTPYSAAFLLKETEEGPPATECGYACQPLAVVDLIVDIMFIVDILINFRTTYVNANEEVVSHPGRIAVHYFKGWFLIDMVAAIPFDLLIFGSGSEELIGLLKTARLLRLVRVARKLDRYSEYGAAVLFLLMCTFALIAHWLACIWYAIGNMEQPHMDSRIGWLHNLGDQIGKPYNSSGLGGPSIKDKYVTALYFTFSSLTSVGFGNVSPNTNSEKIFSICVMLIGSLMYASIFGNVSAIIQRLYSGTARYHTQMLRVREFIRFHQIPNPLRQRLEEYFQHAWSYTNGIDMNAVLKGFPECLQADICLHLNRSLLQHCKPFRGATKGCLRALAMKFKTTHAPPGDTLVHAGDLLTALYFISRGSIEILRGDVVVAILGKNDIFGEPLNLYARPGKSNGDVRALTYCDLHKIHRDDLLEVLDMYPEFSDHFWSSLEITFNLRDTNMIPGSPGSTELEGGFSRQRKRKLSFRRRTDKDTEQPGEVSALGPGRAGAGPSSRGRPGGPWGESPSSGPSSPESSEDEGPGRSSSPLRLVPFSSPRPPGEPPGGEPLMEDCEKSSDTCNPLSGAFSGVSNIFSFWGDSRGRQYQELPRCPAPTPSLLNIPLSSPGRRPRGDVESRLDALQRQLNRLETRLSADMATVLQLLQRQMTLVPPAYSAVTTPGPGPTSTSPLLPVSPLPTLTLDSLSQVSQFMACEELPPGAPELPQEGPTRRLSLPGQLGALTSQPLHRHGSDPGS
pIC50: −log10 of the molar value.

{"record smiles": "COc1ccc2c(C)nc(=O)n(CCN3CCC(NCc4cc5c(cn4)OCCO5)CC3)c2c1", "inequality symbol": "<", "pIC50": 4.48}
{"record smiles": "COc1ccc2c(c1)N(CCN1CCC(NCc3ccc4c(n3)NC(=O)CO4)CC1)C(=O)OC2", "inequality symbol": "=", "pIC50": 4.38}
{"record smiles": "COc1ccc2c(c1)N(CCN1CCC(NCc3ccc4c(n3)NC(=O)CO4)CC1)C(=O)CC2", "inequality symbol": "=", "pIC50": 4.54}
{"record smiles": "COc1ccc2ccc(=O)n(CCN3CCC(NCc4cc5c(cn4)OCCO5)CC3)c2c1", "inequality symbol": "=", "pIC50": 4.47}

###

Listing of recorded fraction unbound at 16 h, 10 µM by entry.
measurement notes: Fraction unbound in human plasma at 10 uM after 16 hrs by equilibrium dialysis
parameter measured: fraction unbound at 16 h, 10 µM

{"record smiles": "COc1ccc2c(c1)N(CCN1CCC(NCc3ccc4c(n3)NC(=O)CO4)CC1)C(=O)OC2", "parameter measured": "fraction unbound at 16 h, 10 µM", "measured number": 0.26}
{"record smiles": "COc1ccc2ccc(=O)n(CCN3CCC(NCc4cc5c(cn4)OCCO5)CC3)c2c1", "parameter measured": "fraction unbound at 16 h, 10 µM", "measured number": 0.31}
{"record smiles": "O=C1COc2ccc(CNC3CCN(CCN4C(=O)COc5ccc(F)cc54)CC3)nc2N1", "parameter measured": "fraction unbound at 16 h, 10 µM", "measured number": 0.17}
{"record smiles": "COc1ccc2ncc(=O)n(CCN3CCC(NCc4cc5c(cn4)OCCO5)CC3)c2n1", "parameter measured": "fraction unbound at 16 h, 10 µM", "measured number": 0.47}
{"record smiles": "COc1ncc2ncc(=O)n(CCN3CCC(NCc4cc5c(cn4)OCCO5)CC3)c2n1", "parameter measured": "fraction unbound at 16 h, 10 µM", "measured number": 0.96}
{"record smiles": "COc1cc2c(ccc(=O)n2CCN2CCC(NCc3cc4c(cn3)OCCO4)CC2)cn1", "parameter measured": "fraction unbound at 16 h, 10 µM", "measured number": 0.17}
{"record smiles": "COc1ccc2c(c1)N(CCN1CCC(NCc3ccc4c(n3)NC(=O)CO4)CC1)C(=O)CC2", "parameter measured": "fraction unbound at 16 h, 10 µM", "measured number": 0.04}

###

Listing of recorded MIC by entry.
Test system: Pseudomonas aeruginosa
measurement notes: Antibacterial activity against Pseudomonas aeruginosa PAO1 after 18 to 24 hrs by broth microdilution method
Assay type: functional
parameter measured: MIC

{"record smiles": "COc1ccc2ccc(=O)n(CCN3CCC(NCc4cc5c(cn4)OCCO5)CC3)c2n1", "result": "> 8 mg/L"}
{"record smiles": "COc1ccc2c(c1)N(CCN1CCC(NCc3cc4c(cn3)OCCO4)CC1)C(=O)CO2", "result": "> 8 mg/L"}
{"record smiles": "O=C1COc2ccccc2N1CCN1CCC(NCc2cc3c(cn2)OCCO3)CC1", "result": "> 8 mg/L"}

###

measurement notes: Octanol-phosphate buffer partition coefficient, log D of the compound at pH 7.4 by LC/MS/UV analysis
protocol conditions: octanol/phosphate buffer

{"record smiles": "COc1ccc2ncc(F)c(CCN3CCC(NCc4cc5c(cn4)OCCO5)CC3)c2n1", "logD": 1.46}
{"record smiles": "COc1cc2c(ccc(=O)n2CCN2CCC(NCc3cc4c(cn3)OCCO4)CC2)cn1", "logD": 0.68}
{"record smiles": "N#Cc1ccc2c(c1)N(CCN1CCC(NCc3ccc4c(n3)NC(=O)CO4)CC1)C(=O)CO2", "logD": 0.24}
